The measurements presented in this section are drawn from paper PMC5522084.

Entries and their measured Binding Level (RU) follow.
# tgt: Eg5 motor domain (Homo sapiens, UniProt P52732)
# Sequence (P52732 18-359 limits assumed): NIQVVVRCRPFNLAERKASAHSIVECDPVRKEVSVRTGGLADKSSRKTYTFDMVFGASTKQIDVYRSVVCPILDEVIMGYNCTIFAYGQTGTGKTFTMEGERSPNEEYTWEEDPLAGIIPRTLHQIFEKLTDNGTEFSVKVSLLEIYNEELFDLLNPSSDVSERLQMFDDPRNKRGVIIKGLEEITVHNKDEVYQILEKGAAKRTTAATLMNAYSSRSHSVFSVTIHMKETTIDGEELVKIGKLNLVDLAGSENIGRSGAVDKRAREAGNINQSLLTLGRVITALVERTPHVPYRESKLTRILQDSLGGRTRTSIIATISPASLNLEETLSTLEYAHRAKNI
# experimentSummary: SPR assay (Biacore T200)
# Assay type: binding
# conditionSummary: SPR screening
Note: unit RU is implicit; provide only the numeric part.

- compound: "CCOC(=O)C1C2c3ccccc3C(c3ccccc32)C1C(=O)OCC (stereo not shown)"
  Binding Level (RU): 14.6
- compound: "CCOC(=O)C1=CN2C(C=C1)C(C(=C(C#N)C#N)C1CC1)C(c1ccccc1)C2C(=O)c1ccccc1 (stereo not shown)"
  Binding Level (RU): 32.8
- compound: "Cc1ccc(N2C(=N)/C(=C(/O)c3ccccc3)C(c3ccc([N+](=O)[O-])cc3)C3=C2CCCC3=O)cc1Cl (stereo not shown)"
  Binding Level (RU): 57.7
- compound: "CCc1cc(C(c2ccccc2F)N2CCOCC2)c(NC(=O)c2ccccc2)s1 (stereo not shown)"
  Binding Level (RU): 60.7
- compound: "CC1(C)CC(=O)C2=C(C1)OC(N)=C(C#N)C21C(=O)N(Cc2ccccc2Cl)c2ccccc21 (stereo not shown)"
  Binding Level (RU): 16.3

// Binding Level (RU) (Eg5 motor domain (Homo sapiens, UniProt P52732)) for NC1=C(C(=O)OCc2ccccc2)C2(C(=O)Nc3ccc(Br)cc32)C2=C(CCCC2=O)O1 (stereo not shown) = 20.7

Query N#CC1=C(N)Oc2n[nH]c(-c3cccc4ccccc34)c2C1c1cccc(O)c1 (stereo not shown) on Eg5 motor domain (Homo sapiens, UniProt P52732); Binding Level (RU) returned: 100.1
